test system: PPARg:RXRa 30nM:10nM, anti-RXR (NR concentration 30 nM, RXRa partner concentration 10 nM); test: PBM binding z-score (relative to random genomic background probes); higher = stronger binding; sequences stand for … in GC…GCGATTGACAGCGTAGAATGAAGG
Grouping key: PBM binding z-score. Bins: range 1 (below 0.6), range 2 (0.6 to below 3), range 3 (3 or more)

Textbook exercise: identify the category of the sequence given here, `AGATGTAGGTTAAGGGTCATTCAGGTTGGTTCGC` , according to its measured value.
range 3

Textbook exercise: identify the category of the sequence given here, `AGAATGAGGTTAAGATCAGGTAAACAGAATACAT` , according to its measured value.
range 2

Textbook exercise: identify the category of the sequence given here, `TCTTGTAGATCAAAGGTTATGAAAGCCGAAGCCT` , according to its measured value.
range 3

Textbook exercise: identify the category of the sequence given here, `CGAACTAGGTCAGAACCGGACAGTGAAGGATGAT` , according to its measured value.
range 2

Textbook exercise: identify the category of the sequence given here, `ACTATTAGTTGAGACGAGGGCAACCGATAGGTTG` , according to its measured value.
range 1

Textbook exercise: identify the category of the sequence given here, `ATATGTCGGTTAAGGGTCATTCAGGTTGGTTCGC` , according to its measured value.
range 3

Textbook exercise: identify the category of the sequence given here, `CCTACTGGGCCAAAGGTTATTGATTCCAATGCTC` , according to its measured value.
range 3

Textbook exercise: identify the category of the sequence given here, `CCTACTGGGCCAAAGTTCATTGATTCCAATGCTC` , according to its measured value.
range 3

Textbook exercise: identify the category of the sequence given here, `AGAATGAGGTAACCAAAGATCAGGGAAACGCTTG` , according to its measured value.
range 1

Textbook exercise: identify the category of the sequence given here, `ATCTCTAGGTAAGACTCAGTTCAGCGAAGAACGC` , according to its measured value.
range 1

Textbook exercise: identify the category of the sequence given here, `TCGAGGAGGTTACCAATGGGGCATTCAGCTTTCT` , according to its measured value.
range 2

Textbook exercise: identify the category of the sequence given here, `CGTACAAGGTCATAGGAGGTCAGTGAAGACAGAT` , according to its measured value.
range 3

Textbook exercise: identify the category of the sequence given here, `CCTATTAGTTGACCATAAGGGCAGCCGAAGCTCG` , according to its measured value.
range 1

Textbook exercise: identify the category of the sequence given here, `CCTACTGGGCCACGAAAGGTCATTGATTCAGTGA` , according to its measured value.
range 2

Textbook exercise: identify the category of the sequence given here, `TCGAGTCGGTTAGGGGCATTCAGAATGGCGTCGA` , according to its measured value.
range 2

Textbook exercise: identify the category of the sequence given here, `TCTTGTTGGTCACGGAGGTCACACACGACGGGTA` , according to its measured value.
range 3

Textbook exercise: identify the category of the sequence given here, `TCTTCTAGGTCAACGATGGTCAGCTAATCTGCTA` , according to its measured value.
range 3

Textbook exercise: identify the category of the sequence given here, `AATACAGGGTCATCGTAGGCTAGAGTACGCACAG` , according to its measured value.
range 2

Textbook exercise: identify the category of the sequence given here, `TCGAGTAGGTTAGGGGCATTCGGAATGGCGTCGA` , according to its measured value.
range 2

Textbook exercise: identify the category of the sequence given here, `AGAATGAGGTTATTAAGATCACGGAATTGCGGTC` , according to its measured value.
range 2

Textbook exercise: identify the category of the sequence given here, `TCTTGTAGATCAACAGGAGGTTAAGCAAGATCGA` , according to its measured value.
range 2

Textbook exercise: identify the category of the sequence given here, `ATCTCGAGGTAAAAGTTCAGTGAATCCCGAGGAT` , according to its measured value.
range 3

Textbook exercise: identify the category of the sequence given here, `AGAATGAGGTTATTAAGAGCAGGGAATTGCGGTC` , according to its measured value.
range 1

Textbook exercise: identify the category of the sequence given here, `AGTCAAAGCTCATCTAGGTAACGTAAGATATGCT` , according to its measured value.
range 1

Textbook exercise: identify the category of the sequence given here, `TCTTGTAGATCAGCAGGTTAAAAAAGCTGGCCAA` , according to its measured value.
range 2

Textbook exercise: identify the category of the sequence given here, `CCTTGCAGGCCAGGGTCACTCAAGCATTTCGCTT` , according to its measured value.
range 1

Textbook exercise: identify the category of the sequence given here, `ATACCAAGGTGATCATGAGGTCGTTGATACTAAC` , according to its measured value.
range 1

Textbook exercise: identify the category of the sequence given here, `GCTAGCAGGCCACTTGGGTCACTCAATGACGGGC` , according to its measured value.
range 1

Textbook exercise: identify the category of the sequence given here, `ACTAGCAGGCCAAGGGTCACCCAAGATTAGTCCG` , according to its measured value.
range 3

Textbook exercise: identify the category of the sequence given here, `TGTCAAAGTTCAAAGGTAACGTAAGTATCCACAC` , according to its measured value.
range 3

Textbook exercise: identify the category of the sequence given here, `TCGAGTAGGTTAGTCGGAGCATTCAGCCAACATA` , according to its measured value.
range 2

Textbook exercise: identify the category of the sequence given here, `GCTAGCAGGCCATTTGGGTCACTCAATGACGGGC` , according to its measured value.
range 1

Textbook exercise: identify the category of the sequence given here, `TGAATGAGGTTATACGATCAGGGAACGTTGCAAA` , according to its measured value.
range 1

Textbook exercise: identify the category of the sequence given here, `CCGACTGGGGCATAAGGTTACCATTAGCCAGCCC` , according to its measured value.
range 2

Textbook exercise: identify the category of the sequence given here, `GCGACTGGGGCAAAGCAGGTTACTATAAGGTTGG` , according to its measured value.
range 1

Textbook exercise: identify the category of the sequence given here, `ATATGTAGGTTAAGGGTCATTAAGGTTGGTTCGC` , according to its measured value.
range 3

Textbook exercise: identify the category of the sequence given here, `CGAACTAGGTCAAGGTCAAAGTCGGTTTGTGCCA` , according to its measured value.
range 3

Textbook exercise: identify the category of the sequence given here, `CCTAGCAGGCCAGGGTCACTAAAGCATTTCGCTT` , according to its measured value.
range 1

Textbook exercise: identify the category of the sequence given here, `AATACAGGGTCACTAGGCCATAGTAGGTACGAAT` , according to its measured value.
range 3

Textbook exercise: identify the category of the sequence given here, `TCTTGTAGATCAAAGTTTAAGAAAGCCGAAGCCT` , according to its measured value.
range 3

Textbook exercise: identify the category of the sequence given here, `GCTAGTTGGTCACTAAAAGGTCACACACCGGTCG` , according to its measured value.
range 2

Textbook exercise: identify the category of the sequence given here, `AGAATGAGGTTATTAGGATCAGGGAATTGCGGTC` , according to its measured value.
range 2

Textbook exercise: identify the category of the sequence given here, `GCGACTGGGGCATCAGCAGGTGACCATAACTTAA` , according to its measured value.
range 1

Textbook exercise: identify the category of the sequence given here, `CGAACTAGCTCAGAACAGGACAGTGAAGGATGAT` , according to its measured value.
range 1

Textbook exercise: identify the category of the sequence given here, `CCTCCTGGGCCAAAGGTCATTGATTCCAATGCTC` , according to its measured value.
range 3

Textbook exercise: identify the category of the sequence given here, `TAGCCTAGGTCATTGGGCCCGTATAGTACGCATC` , according to its measured value.
range 1

Textbook exercise: identify the category of the sequence given here, `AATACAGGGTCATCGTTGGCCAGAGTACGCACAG` , according to its measured value.
range 2

Textbook exercise: identify the category of the sequence given here, `TATCGGAGGACACGAAGGTCAGAGCTTTCCAGAG` , according to its measured value.
range 1

Textbook exercise: identify the category of the sequence given here, `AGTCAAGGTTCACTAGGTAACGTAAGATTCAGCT` , according to its measured value.
range 2

Textbook exercise: identify the category of the sequence given here, `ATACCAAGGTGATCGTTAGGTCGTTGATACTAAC` , according to its measured value.
range 1

Textbook exercise: identify the category of the sequence given here, `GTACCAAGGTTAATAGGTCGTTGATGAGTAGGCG` , according to its measured value.
range 2
